biological target: soluble human BACE1 catalytic domain (Homo sapiens (Human), UniProt P56817); assay: BACE1 HTRF FRET Assay; conditions: read-out: BACE1 Ki; Ki calculated from IC50 using the Cheng-Prusoff equation
Sequence (P56817 75-416): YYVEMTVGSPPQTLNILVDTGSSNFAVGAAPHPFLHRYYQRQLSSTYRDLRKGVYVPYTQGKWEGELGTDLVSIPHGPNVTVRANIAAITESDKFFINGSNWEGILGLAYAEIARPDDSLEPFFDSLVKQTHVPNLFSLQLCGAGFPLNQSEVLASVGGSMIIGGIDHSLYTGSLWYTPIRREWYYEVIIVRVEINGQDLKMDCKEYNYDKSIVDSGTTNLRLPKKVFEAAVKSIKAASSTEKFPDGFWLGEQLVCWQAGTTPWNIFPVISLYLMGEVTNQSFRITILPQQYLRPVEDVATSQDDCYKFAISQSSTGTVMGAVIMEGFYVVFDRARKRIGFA
pKi values, listed per item
Hey, just a heads up that pKi is the negative log base 10 of the concentration in molar.

compound	pKi
CC[C@]1(C)C(=N)N[C@](C)(c2cc(NC(=O)c3ccc(F)cn3)ccc2F)CS1(=O)=O [Example 9cl-b]	7.65
COc1cnc(C(=O)Nc2ccc(F)c([C@]3(C)CS(=O)(=O)[C@@](C)(C4CC4)C(=N)N3)c2)cn1 [Example 9cq-a]	7.88
COc1cnc(C(=O)Nc2ccc(F)c([C@]3(C)CS(=O)(=O)[C@](C)(CC(F)(F)F)C(=N)N3)c2)cn1 [Example 9dr-b]	6.86

Problem: Request the reported pKi associated with CC1(C)C(=N)N[C@](C)(c2sc(C(=O)NCc3cnoc3)cc2Cl)CS1(=O)=O [Example 22q]
Result: 6.45

###

Measured Ki, listed per entry.
molecular target: soluble human BACE1 catalytic domain (Homo sapiens (Human), UniProt P56817); test: BACE1 HTRF FRET Assay; details: read-out: BACE1 Ki

Examples with their reported Ki follow.
molecule	measurement_kind	measured_value
CC1(C)C(=N)N[C@](C)(c2sc(-c3cncc(Cl)c3)cc2Cl)CS1(=O)=O [Example 27l]	Ki	92.2 nM
CC1(C)C(=N)N[C@](C)(c2sc(-c3ccnc(C4CC4)c3)cc2F)CS1(=O)=O [Example 27av]	Ki	663 nM
COc1cncc(-c2cc(F)c([C@]3(C)CS(=O)(=O)C(C)(CC(F)(F)F)C(=N)N3)s2)c1 (stereo partly shown) [Example 27bn-a]	Ki	8020 nM

Pending molecule:
Problem: Consider the molecule shown here: CC1(C)C(=N)N[C@](C)(c2cc(-c3cncc(-c4cnco4)c3)cs2)CS1(=O)=O [Example 27al] What is its recorded Ki?
Result: 93.8 nM

###

target: purified human autoBACE-2 (Homo sapiens (Human)); experiment: BACE-2 Assay (BACE-HTRF assay); assay type: biochemical; conditions: Ki calculated from IC50 using the Cheng-Prusoff equation; read-out: BACE2 Ki
Sequence (Q9Y5Z0 63-473): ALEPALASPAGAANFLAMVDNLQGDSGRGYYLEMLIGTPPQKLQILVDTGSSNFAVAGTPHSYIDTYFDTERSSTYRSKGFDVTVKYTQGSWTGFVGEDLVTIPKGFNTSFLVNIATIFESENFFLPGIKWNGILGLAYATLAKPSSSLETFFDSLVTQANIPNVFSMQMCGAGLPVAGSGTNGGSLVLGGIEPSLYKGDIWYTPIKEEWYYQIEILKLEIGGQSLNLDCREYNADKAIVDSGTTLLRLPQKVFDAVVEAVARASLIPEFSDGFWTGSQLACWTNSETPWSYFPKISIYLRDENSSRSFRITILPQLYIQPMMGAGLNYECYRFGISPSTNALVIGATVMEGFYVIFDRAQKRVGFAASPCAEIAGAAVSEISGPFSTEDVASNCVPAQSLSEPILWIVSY
measurement_kind: log10 of Ki (log10 of the value in nM)
Use the decimal logarithm of Ki (nM).

Below: 5 compounds and their reported log10 of Ki.
compound	subject_of_test	measurement_kind	measured_value
CC1(C)C(=N)N[C@](C)(c2cc(NC(=O)c3ccc(Cl)cc3)cc(F)c2F)CS1(=O)=O	purified human autoBACE-2 (Homo sapiens (Human))	log10 of Ki	0.95
CC1(C)C(=N)N[C@](C)(c2nc(NC(=O)c3ccc(C(F)(F)F)cn3)ccc2F)CS1(=O)=O	purified human autoBACE-2 (Homo sapiens (Human))	log10 of Ki	1.60
C[C@@]1(c2ccc(F)cc2F)CS(=O)(=O)[C@@](C)(c2cccc(C(F)(F)F)c2)C(=N)N1 [Example 32h-a]	purified human autoBACE-2 (Homo sapiens (Human))	log10 of Ki	2.10
CC1(C)C(=N)N[C@](C)(c2cc(NC(=O)c3ncc(F)cc3F)cc(F)c2F)CS1(=O)=O	purified human autoBACE-2 (Homo sapiens (Human))	log10 of Ki	0.00
COc1ccccc1Nc1ccc(F)c(C2(C)CS(=O)(=O)C(C)(C)C(=N)N2)n1 (stereo not drawn) [Example 30a]	purified human autoBACE-2 (Homo sapiens (Human))	log10 of Ki	2.71

Consider the additional compound presented here.
Problem: Lab request: please report log10 of Ki under test system purified human autoBACE-2 (Homo sapiens (Human)) for `COc1ccc(C(=O)Nc2ccc(F)c([C@]3(C)CS(=O)(=O)C(C)(C)C(=N)N3)n2)nn1`
Result: 1.64
